Taken from patent US20260109763A1.

molecular target: human PILRA G78 on cells (human, UniProt Q9UKJ1 20-303); experiment: cell-based or functional assay
Sequence (Q9UKJ1 20-303 R78G limits assumed): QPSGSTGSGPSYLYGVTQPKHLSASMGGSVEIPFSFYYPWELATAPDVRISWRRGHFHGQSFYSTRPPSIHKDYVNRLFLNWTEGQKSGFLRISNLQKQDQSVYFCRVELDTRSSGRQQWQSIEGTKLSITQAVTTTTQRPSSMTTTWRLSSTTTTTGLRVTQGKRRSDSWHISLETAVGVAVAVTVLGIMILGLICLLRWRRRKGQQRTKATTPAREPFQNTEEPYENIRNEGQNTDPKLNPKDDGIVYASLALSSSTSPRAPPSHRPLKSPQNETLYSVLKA
readout: pSTAT3 S727 induction, Fold Over Background (fold)

>>> obs_value("Anti-PILRA antibody clone 35 (antibody, V domains shown, Humanized; also called Ab.35) VH: EVQLVQSGAEVKKPGASVKVSCKASGYTFTEYYMYWVRQAPGQGLELIGRIDPEDGGTDYVEKFKNRATLTADTSTSTAYLELSSLRSEDTAVYFCASTIRGTVFVYWGQGTLVTVSS VL: DIQMTQSPSSLSASVGDRVTITCRPSEDIYNGLAWYQQKPGKSPKLLIYNANSLHTGVPSRFSGSGSGTDYTLTISSLQPEDFATYFCQQYYDYPLTFGQGTKVEIK")
28.9
